B1: ALKBH7 (parent)
chain: SVICRSLPEGMGPGESGQPPPAC

variants of: B1; assay: protein stability index of a GFP-peptide fusion (GPS, HEK-293T) (PSI 1-6); higher = more stable; conditions: c terminus: native;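 also: lentivirally expressed fusions sorted by FACS into six bins by GFP to DsRed ratio, PSI derived from sequencing read proportions per bin multiplied by bin number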
experimental readout: protein stability index
Please give the numeric answer without any surrounding text.

Q) Request the reported protein stability index associated with `C4P`
A) 2.4

Q) Request the reported protein stability index associated with `P19S`
A) 4.04

Q) Request the reported protein stability index associated with `G14V`
A) 1.15

Q) Request the reported protein stability index associated with `L7E`
A) 2.16

Q) Request the reported protein stability index associated with `R5A`
A) 1.88

Q) Request the reported protein stability index associated with `P19Q`
A) 4.22

Q) Request the reported protein stability index associated with `R5G`
A) 2.09

Q) Request the reported protein stability index associated with `P21H`
A) 3.44

Q) Request the reported protein stability index associated with `R5I`
A) 1.44
